Origin of values: the nanobody polyreactivity screen of Harvey et al. (2022)

- measurementDescription: yeast display, Sf9 membrane polyspecificity reagent, FACS + sequencing; frameworks hold sequencing errors
measurementName: polyreactivity (PSR sort gate)

Known polyreactivity (PSR sort gate) results, listed for orientation:
>  <residues>
QVQLEESGGGLVQAGGRLRISCAASGRTFLCYAMGWSRQAPGKERELLAAISKSGGSTYYADSVKGRFTISRDNAKNTVYLQMNSLKPQDTAVYYCAVEVDVYTFSEFYYWGQGTQVTVSS

>  <polyreactivity (PSR sort gate)>
high polyreactivity

$$$$
>  <residues>
QVQLVESGGGLVQAGGTLRLRCAPSGSIFWGNAIGWYRQAPGKERELVAAIDWSGGSTYYADSVKGRFTISRDNAKNTVYLLMYSLKPEDTAVYFCAASGRYDYDYWGQGTQVTVSS

>  <polyreactivity (PSR sort gate)>
low polyreactivity

$$$$
>  <residues>
QVQLVESGGGLVQAGGSLRLSCAASGFIFRFYAMGWYRQAPGKERELVATISKRGGTTYYADSVKGRFTISRDNAKNTVYLQMNSLKPEDTAVYYCAVRLYLEMDYWGQGTQVTVSS

>  <polyreactivity (PSR sort gate)>
high polyreactivity

$$$$
>  <residues>
QVQLVESGGGLVQAGGSLRLSCAASGSNFPVYAMGWYRQAPGKEREFVAAISYSGGGTYYADSVKGRFTISRDNAKNTVYLQMNSLKPEDTAVYYCAADVSGWEYAYWGQGTQVTVSS

>  <polyreactivity (PSR sort gate)>
low polyreactivity

$$$$

*Q* Quick one: polyreactivity (PSR sort gate) for QVQLADSGGGLVQAGGSLRLICAASGSIIRNKAMGWYRQAPGKERELVAAITSTGTGTYYADSVKGRFTISRDYAKNTVYLQMNRVKPEDPAVYYCAVDDEFEFGYWGQGTQVTVSS ?
*A* low polyreactivity
